The measured values listed here are drawn from PubChem BioAssay (NCATS).

# Tested on: MCC-26
# Experiment Summary: qHTS assay to identify novel small-molecules to repurpose for Merkel cell carcinoma treatment (AID 1296009); further: nearly all actives have a fitted effect of over 60% in size; further: potency means the concentration at half of the fitted maximal effect
# Test Parameters: MCC and control cell lines, CellTiter-Glo viability, 72 h; series mostly up to 46 µM
Inconclusive results are not listed. The source made the active and inactive calls. The call rests on the fitted dose curve; in most records, active means well fitted inhibition curve with a large enough effect; inconclusive means small, poorly fitted or top-dose-only effect; inactive means flat fitted curve, though single readings scatter.
Quantity Name: Potency

[[record]]
compound = "NS(=O)(=O)OC[C@@H]1C[C@@H](n2ccc3c(N[C@H]4CCc5ccccc54)ncnc32)C[C@H]1O"
quantity_name = "Potency"
result = "2.09 µM (active)"

[[record]]
compound = "C[C@H]1[C@@H](OC(=O)CCC(=O)O)O[C@@H]2O[C@@]3(C)CC[C@@H]4[C@H](C)CC[C@@H]1[C@@]24OO3"
quantity_name = "Potency"
result = "inactive"

[[record]]
compound = "CC(C(C)N1CC(=O)NC(=O)C1)N1CC(=O)NC(=O)C1 (centres undefined)"
quantity_name = "Potency"
result = "inactive"

[[record]]
compound = "c1cc(N[C@@H]2CCNC2)nc(-c2cnc3ccc(-c4cn[nH]c4)cn23)c1"
quantity_name = "Potency"
result = "inactive"

[[record]]
compound = "CON=C(C(=O)N[C@@H]1C(=O)N2C(C(=O)O)=C(CSC(=O)c3ccco3)CS[C@H]12)c1csc(N)n1"
quantity_name = "Potency"
result = "inactive"

[[record]]
compound = "CCCCCCCCCCCCc1ccc(S(=O)(=O)Nc2nncs2)cc1"
quantity_name = "Potency"
result = "inactive"

[[record]]
compound = "Cn1cc(-c2ccc3ncc(Cc4ccc5ncccc5c4)n3n2)cn1"
quantity_name = "Potency"
result = "inactive"

[[record]]
compound = "O=C(C=CC#Cc1cccc(NS(=O)(=O)c2ccccc2)c1)NO"
quantity_name = "Potency"
result = "18.7 µM (active)"

[[record]]
compound = "CCn1c(=O)c2c(nc(C=Cc3ccc(OC)c(OC)c3)n2C)n(CC)c1=O"
quantity_name = "Potency"
result = "inactive"


* * *

# Experiment Summary: qHTS Screen of the MIPE 4.0 Collection Against Ewings Sarcoma (TC71) (AID 1259253); further: nearly all actives have a fitted effect of over 40% in size
# Test Parameters: TC71 Ewing sarcoma viability, CellTiter-Glo, 48 h; series mostly up to 45.8 µM
Records with an inconclusive call do not appear. The source made the active and inactive calls. The call rests on the fitted dose curve; in most records, active means well fitted inhibition curve with a large enough effect; inconclusive means small, poorly fitted or top-dose-only effect; inactive means no such curve, though single readings can be large or run the other way.
Classes used: active, inactive

[[record]]
compound = "NC1=N[C@H]2[C@H](CS[C@H]2CCCCC(=O)O)N1"
group = "inactive"

[[record]]
compound = "COC[C@H](NC(=O)c1cnc(C)s1)C(=O)N[C@@H](COC)C(=O)N[C@@H](Cc1ccccc1)C(=O)[C@@]1(C)CO1"
group = "active"

[[record]]
compound = "C=CC(=O)Nc1cccc(Nc2nc(NC3CCC(N(C)C)CC3)nc3c2ncn3C(C)C)c1 (stereo not drawn)"
group = "active"

[[record]]
compound = "CC[C@@]1([C@@H]2O[C@@H]([C@H]3O[C@@](O)(CO)[C@H](C)C[C@H]3C)C[C@H]2C)CC[C@H]([C@]2(C)CC[C@]3(C[C@H](O)[C@@H](C)[C@@H]([C@@H](C)[C@@H](OC)[C@H](C)C(=O)O)O3)O2)O1"
group = "active"

[[record]]
compound = "Nc1nc(N)c2nc(-c3cccc(O)c3)c(-c3cccc(O)c3)nc2n1"
group = "active"

[[record]]
compound = "CCOC(=O)C1=C(C)NC(=S)NC1c1cccc(O)c1 (stereo not drawn)"
group = "active"

[[record]]
compound = "C[C@@H](Cc1cc2c(c(C(N)=O)c1)N(CCCO)CC2)NCCOc1ccccc1OCC(F)(F)F"
group = "inactive"

[[record]]
compound = "Cc1ccccc1C(=O)Nc1ccc(C(=O)N2CCCC(O)c3cc(Cl)ccc32)c(C)c1 (stereo not drawn)"
group = "inactive"


* * *

# Experiment Summary: Primary qHTS for small molecule stabilizers of the endoplasmic reticulum resident proteome: Secreted ER Calcium Modulated Protein (SERCaMP) assay (AID 1508630)
# Test Parameters: SH-SY5Y GLuc-SERCaMP (Gaussia luciferase released on ER calcium loss) secretion, thapsigargin, luminescence; series mostly up to 38.4 µM
Inconclusive results are not listed. Calls of active or inactive are those of the source. Calls come from the whole dose curve; as a rule, active = well fitted inhibition curve with a large enough effect; inconclusive = small, poorly fitted or top-dose-only effect; inactive = no such curve, though single readings can be large or run the other way.
Quantity Name: activity change, negative = inhibition

[[record]]
input_smiles = "COc1ccc(Nc2nccc(NCCO)n2)cc1"
result = "inactive"

[[record]]
input_smiles = "O=C(CN1C(=O)C2(CCCC2)NC[C@H]1c1cc(F)cc(F)c1)Nc1ccc2c(c1)C[C@@]1(C2)C(=O)Nc2ncccc21"
result = "inactive"

[[record]]
input_smiles = "CC[C@]12C=CCN3CC[C@@]4(c5cc([C@@]6(C(=O)OC)C[C@H]7C[C@@H](C(C)(F)F)CN(Cc8c6[nH]c6ccccc86)C7)c(OC)cc5N(C)[C@H]4[C@@](O)(C(=O)OC)[C@H]1OC(C)=O)[C@@H]32"
result = "inactive"

[[record]]
input_smiles = "COC1=C2C[C@@H](C)C[C@H](OC)[C@@H](O)[C@@H](C)C=C(C)[C@H](OC(N)=O)[C@@H](OC)C=CC=C(C)C(=O)NC(=CC1=O)C2=O"
result = "inactive"

[[record]]
input_smiles = "COc1cccc2c1C(=O)c1c(O)c3c(c(O)c1C2=O)C[C@@](O)(C(C)=O)C[C@H]3O[C@H]1C[C@H](N)[C@H](O)[C@H](C)O1"
result = "inactive"

[[record]]
input_smiles = "O=C(O)c1ccc(Nc2ncc3c(n2)-c2ccc(Cl)cc2C(c2c(F)cccc2F)=NC3)cc1"
result = "inactive"

[[record]]
input_smiles = "CC1(C)O[C@@H]2C[C@H]3[C@@H]4CCC5=CC(=O)C=C[C@]5(C)[C@@H]4[C@@H](O)C[C@]3(C)[C@]2(C(=O)CO)O1"
result = "inactive"


* * *

Listed below: Potency values for each entry.
# Experiment Summary: Quantitative High-Throughput drug screen in 47 multiple myeloma cell lines against the NCATS MIPE library collection: OCIMY5_PLB cell viability assay (AID 1918988); further: potency means the concentration at half of the fitted maximal effect; nearly all actives have a fitted effect of over 65% in size
# Test Parameters: OCI-MY5 myeloma viability, ATP luminescence, 48 h; series mostly up to 45.8 µM
Results filed as inconclusive are left out. Calls of active or inactive are those of the source. The call rests on the fitted dose curve; in most records, active means well fitted cell-killing curve with a large enough effect; inconclusive means small, poorly fitted or top-dose-only effect, or effect the other way; inactive means no such curve, though single readings can be large or run the other way.
Quantity Name: Potency

[[record]]
input_smiles = "N#Cc1c(C2CCNCC2)cc(-c2c(O)cccc2OCC2CC2)nc1N"
quantity_name = "Potency"
result = "14.8 µM (active)"

[[record]]
input_smiles = "COc1cccc2c1C(=O)c1c(O)c3c(c(O)c1C2=O)C[C@@](O)(C(=O)CO)C[C@H]3O[C@H]1C[C@H](N)[C@H](O)[C@H](C)O1"
quantity_name = "Potency"
result = "0.166 µM (active)"

[[record]]
input_smiles = "C#Cc1cccc(Nc2ncnc3cc(OCCOC)c(OCCO)cc23)c1"
quantity_name = "Potency"
result = "3.32 µM (active)"

[[record]]
input_smiles = "C[C@H](NC(=O)C(C#N)=Cc1cccc(Br)n1)c1ccccc1"
quantity_name = "Potency"
result = "2.64 µM (active)"

[[record]]
input_smiles = "FC(F)(F)c1ccc(Nc2nc3ccc(Oc4ccnc(-c5ncc(C(F)(F)F)[nH]5)c4)cc3[nH]2)cc1"
quantity_name = "Potency"
result = "16.6 µM (active)"


* * *

# Experiment Summary: qHTS of pediatric cancer cell lines to identify multiple opportunities for drug repurposing: Primary screen for SK-N-SH cells (AID 1347098); further: nearly all actives have a fitted effect of over 65% in size
# Test Parameters: SK-N-SH viability, CellTiter-Glo luminescence, 48 h; series mostly up to 57 µM
# Description: Drug repurposing or repositioning has been offered as a strategy for drug development in oncology programs. […] [1] Shen, M et al. Quantitative high-throughput phenotypic screening of pediatric cancer cell lines identifies multiple opportunities for drug repurposing. […] Cells were assayed in growth media at a density of 500-1,000 cells/well. […] After a 15 min incubation at room temperature, samples were analyzed for luminescence intensity using a ViewLux High-throughput CCD imager equipped with clear filters.
Results filed as inconclusive are left out. Active and inactive are the calls of the source. Calls come from the whole dose curve; as a rule, active = well fitted cell-killing curve with a large enough effect; inconclusive = small, poorly fitted or top-dose-only effect; inactive = no such curve, though single readings can be large or run the other way.
Outcomes: active, inactive

[[record]]
compound = "CN(C)CCN1C(=O)c2cccc3cc(N)cc(c23)C1=O"
group = "active"

[[record]]
compound = "CS[C@H]1SC[C@@H]2C(=O)N(C)[C@H](C(C)C)C(=O)OC[C@H](NC(=O)c3cnc4ccccc4n3)C(=O)N[C@H](C)C(=O)N(C)[C@@H]1C(=O)N(C)[C@H](C(C)C)C(=O)OC[C@H](NC(=O)c1cnc3ccccc3n1)C(=O)N[C@H](C)C(=O)N2C"
group = "active"

[[record]]
compound = "N#CC(=C(N)Sc1ccc(N)cc1)c1ccccc1C(F)(F)F"
group = "active"

[[record]]
compound = "CC(C)(N)c1ccc(-c2nc3ccccc3nc2-c2ccccc2)cc1"
group = "active"

[[record]]
compound = "Cc1coc2c1C(=O)C(=O)c1c-2ccc2c(C)cccc12"
group = "inactive"

[[record]]
compound = "COc1cccc2c1C(=O)c1c(O)c3c(c(O)c1C2=O)C[C@@](O)(C(=O)CO)C[C@H]3O[C@H]1C[C@H](N)[C@H](O)[C@H](C)O1"
group = "active"

[[record]]
compound = "CCNC(=O)c1cc2c(-c3cc(OCCN4CCCC4)c(Cl)cc3Cl)nc(N)nc2s1"
group = "active"

[[record]]
compound = "COc1ccc(C[C@@H](C)[C@@H](C)Cc2ccc(OC)c(OC)c2)cc1OC"
group = "inactive"

[[record]]
compound = "NC(=O)c1ncn([C@@H]2O[C@H](CO)[C@@H](O)[C@@H]2O)c1N"
group = "inactive"

[[record]]
compound = "CC(C=CC1=C(C)CCCC1(C)C)=CC=CC(C)=CC(=O)Nc1ccc(O)cc1"
group = "active"

[[record]]
compound = "COc1cc(O)c2c(c1)C1OC1C[C@H](O)[C@H](O)C(=O)C=CC[C@H](C)OC2=O (stereo partly drawn)"
group = "active"

[[record]]
compound = "C=C1CCC2[C@](C)(CO)C(O)CC[C@]2(C)C1CC=C1C(=O)OCC1O (stereo partly drawn)"
group = "inactive"

[[record]]
compound = "CC1=C(C(=O)Nc2cc3cn[nH]c3cc2F)C(c2ccc(Cl)cc2F)N=C(c2ccnc(Cl)c2)N1 (stereo not drawn)"
group = "active"

[[record]]
compound = "COc1cccc2c1C(=O)c1c(O)c3c(c(O)c1C2=O)C[C@@](O)(C(=O)CO)C[C@@H]3O[C@H]1C[C@H](N)[C@H](OC2CCCCO2)[C@H](C)O1 (stereo partly drawn)"
group = "inactive"

[[record]]
compound = "CC(C)n1cnc2c(NCCc3ccc(O)cc3)nc(-c3csc4ccccc34)nc21"
group = "active"

[[record]]
compound = "CN1[C@H]2CC(OC(=O)[C@@H](CO)c3ccccc3)C[C@H]1[C@H]1O[C@H]12 (stereo partly drawn)"
group = "inactive"

[[record]]
compound = "COc1cc(C(=O)NC2CCN(C)CC2)ccc1Nc1ncc2c(n1)N(C1CCCC1)CCC(=O)N2C(C)C"
group = "active"

[[record]]
compound = "CN1CCc2c(c3ccccc3n2Cc2ccc(C(=O)NO)cc2)C1"
group = "active"

